test system: HIV-1 integrase (with human LEDGF/p75); assay: blockers of LEDGF/p75-dependent integrase strand transfer – biochemical, TR-FRET, high throughput, primary screen (AID 743269); conditions: TR-FRET IN-LEDGF/p75 DNA integration, Eu/Cy5; at 3.7 µM; hits give high values;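 also: signal is the Cy5 over europium emission ratio at 671 and 618 nm; 0% = plate median of compound wells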
Out of some 370,000 compounds screened, about 2,400 (0.65%) were called active. The sample as a whole holds a higher share of actives than the screen did.
PARAMETER MEASURED: inhibition (%)
The reply should be a number in %, with the unit left off.

| COMPOUND | PARAMETER MEASURED | READOUT VALUE |
| --- | --- | --- |
| O=C(N1CCOCC1)N1CC[C@H]2[C@H](CCCN2Cc2ccc(F)cc2)C1 | inhibition | 3 |

*Q* Give the measured inhibition of CC(O)c1nc2ccccc2n1Cc1ccc([N+](=O)[O-])cc1 (stereo unspecified) .
*A* 0.5

*Q* What inhibition value was documented for this compound, `COc1cccc(NC(=O)COC(=O)/C=C/c2ccco2)c1` ?
*A* 20.4

*Q* Need inhibition, item `CCCCCCCCNS(=O)(=O)/C=C/c1cc(C)ccc1CNC(=O)OC(C)(C)C`
*A* -0.25

*Q* Query: inhibition; subject: Oc1cc(O)c2c(c1)OC(c1ccc(O)c(O)c1)C(O)C2 (stereo unspecified)
*A* 17.4

*Q* Which measured inhibition value corresponds to `CC(=O)c1nc2ccccc2n1Cc1ccccc1` ?
*A* 22.6

*Q* Given the compound CC(C)CNS(=O)(=O)CC1NCCc2ccccc21 (stereo unspecified) , what is its reported inhibition?
*A* -2.87

*Q* Would you kindly share the measured inhibition for `O=C(c1ccncc1)N1CC[C@H]2[C@H](CCCN2Cc2ccc(F)cc2)C1` ?
*A* 1.57

*Q* Any idea what its inhibition is? The compound is `COc1ccc(C#CCNCc2ccc(OC)cc2OC)cc1`
*A* -3.69

*Q* For the compound `O=C(O)Cn1c(Cc2ccccc2)nc2ccccc21` , what inhibition is on record?
*A* -1.98

*Q* // inhibition lookup, key: `O=C(c1cccc(C(F)(F)F)c1)N1CC[C@H]2[C@H](CCCN2Cc2cc(F)cc(F)c2)C1`
*A* 86.5
